Tested on: Bacillus subtilis
experimental.details: cleaved RNA product abundance (RNA/gDNA barcode ratio) relative to median wild-type variant (ratio to wild type); higher = more accumulation of the downstream cleavage product
run.parameters: experiment (reporter, strain, medium): exp 4a: truncated aprE reporter, strain BJT201 with 2% xylose (RNase J1 expressed); cleavage site: cggR-gapA (positions -7 to +36 mutated)
endpoint.label: cleaved RNA product abundance
Note: the reply should be a number with no unit written.

polymer.sequence	data.value
ACAGACGAAGGAGCCGCAAAGAAGTTATTAAGGTATGAATAAGCCCTCAATATAAATATCTCTCACTTATTTAAA	0.13
ACAGACGAAGGAGCCGCAAAGAAGGTATTAAGGTATGAATAATCCCTCAATATAAATATCTCTCACTTATTTAAA	0.23

Query cleaved RNA product abundance on Bacillus subtilis for `ACAGACGAAGGAGCCGCAAAGAAGTTATTAAGGGATGAAGAATCCCTCAATATCAATATCTCTCACTTATTTAAA` 0.0586

Query cleaved RNA product abundance on Bacillus subtilis for `ACAGACGAAGGAGCCGCTAAGAAGTTATTAAGGGATGAATAATCCCTCAACATAAATATCTCTCACTTATTTAAA` 0.291

Query cleaved RNA product abundance on Bacillus subtilis for `ACAGACGAAGGAGCCGCAAAGAAGTTATTAAGGGATGAATAATCCCTCTATCTAAATATCTCTCACTTATTTAAA` 0.101

Query cleaved RNA product abundance on Bacillus subtilis for `ACAGACGAAGGAGCCGCAAAGAAGTTATTAAGGGATGAATAATACCTGAATATAAATATCTCTCACTTATTTAAA` 0.107

Query cleaved RNA product abundance on Bacillus subtilis for `ACAGACGAAGGAGCCGCAAAGTAGTTATTAAGGGATGAATAATTCCTCAATATAAATATCTCTCACTTATTTAAA` 0.75

Query cleaved RNA product abundance on Bacillus subtilis for `ACAGACGAAGGAGCCGCAAATAAGTTATTAAGGCATGACTAATCCCTCAATATAAATATCTCTCACTTATTTAAA` 0.144

Query cleaved RNA product abundance on Bacillus subtilis for `ACAGACGAAGGAGCCGCAAAGAAGTTACTAAGGGATGAATAATCCCTAAATATAAATATCTCTCACTTATTTAAA` 0.253

Query cleaved RNA product abundance on Bacillus subtilis for `ACAGACGAAGGAGCCGCACAGAAGTTATTAAGGGATGAATAATCCCTCAATATAAAGATCTCTCACTTATTTAAA` 0.549

Query cleaved RNA product abundance on Bacillus subtilis for `ACAGACGAAGGAGCCGCAAAGAAGTTATTAAGGGATGAATAATCCCTCAATATAAAAATTTCTCACTTATTTAAA` 0.688

Query cleaved RNA product abundance on Bacillus subtilis for `ACAGACGAAGGAGCCGCAAAGAAGTTATTAAGGGATAAATAAGCCCTCAATATAAATATCTCTCACTTATTTAAA` 0.821

Query cleaved RNA product abundance on Bacillus subtilis for `ACAGACGAAGGAGCCGCATAGAAGTTATTAAGGGATGAATAATCCCTCAATATAAACATCTCTCACTTATTTAAA` 1

Query cleaved RNA product abundance on Bacillus subtilis for `ACAGACGAAGGAGCCGCAAAGAATTTATTAAGGGATGCATAATCCCTCAATATAAATATCTCTCACTTATTTAAA` 0.597

Query cleaved RNA product abundance on Bacillus subtilis for `ACAGACGAAGGAGCCGCAAAGATGTTATTAAGGGATGAATAATCCCTCTATATAAATATCTCTCACTTATTTAAA` 0.447
